Hey, just so you know, these numbers are from paper PMC10046861.

# study_system: T1, Drosophila LC8 (Drosophila, UniProt Q24117 1-89)
# T1 construct: LC8 hub protein (dynein light chain LC8) of Drosophila; folds as a homodimer; tag cleaved by TEV protease; also called LC8 dimer; source: E. coli Rosetta (DE3), purified (TALON, anion exchange, Superdex 75 gel filtration)
# T1 sequence (Q24117 whole entry): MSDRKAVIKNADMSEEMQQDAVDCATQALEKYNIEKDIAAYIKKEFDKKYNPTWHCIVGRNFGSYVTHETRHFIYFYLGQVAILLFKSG
# method_description: ITC; LC8 (400–500 µM) in the syringe titrated into QT variant (20–50 µM) in the cell; 25 °C; 50 mM sodium phosphate, 50 mM NaCl, 1 mM sodium azide, 5 mM β-mercaptoethanol, pH 7.5; single set of sites fit, for double-site variants also sequential binding sites (SBS) and two sets of sites (TSS) fits
# run_parameters: both partners purified
readout: Kd (µM)

[[record]]
binder = "QT3 (QT2–4 single-site variant, only motif QT3 intact) (domain or fragment, Anchor positions are not printed. They were deduced from 8-residue motifs ending in the anchor, linkers of 3 and 30 residues, and 9 residues after QT4; the wild-type letters must match the entry …) EVLAPLLRDIEAAAPDTRGDIGTMTDDFPEEQEPVAVGSHFHAYSETEPMFDLQTSAHMYAAACDDLFEEL"
val = 36

